- System: SW480, human colon adenocarcinoma cells
- Protocol Summary: Growth of cancer cell lines: SW480
- Assay type: cell-based
- Stated Conditions: mean ± S.D., n = 3; read-out: IC50 against growth of SW480
What pIC50 was measured for each of the following?
Answers are plain numbers, as −log10 of the molar value.

Known pIC50 results, listed for orientation:
Compound	Reported Measurement
C[C@H]1CC[C@@]2(OC1)O[C@H]1C[C@H]3[C@@H]4CC[C@@H]5C[C@@H](O[C@@H]6O[C@H](CO)[C@@H](O)[C@H](O)[C@H]6O)CC[C@]5(C)[C@H]4CC[C@]3(C)[C@H]1[C@@H]2C [Asparagoside A]	4.81
C[C@H]1CC[C@@]2(OC1)O[C@H]1C[C@H]3[C@@H]4CC[C@@H]5C[C@@H](O[C@@H]6O[C@H](CO)[C@H](O[C@@H]7O[C@H](CO)[C@@H](O)[C@H](O)[C@H]7O)[C@H](O)[C@H]6O[C@@H]6O[C@H](CO)[C@@H](O)[C@H](O)[C@H]6O)CC[C@]5(C)[C@H]4CC[C@]3(C)[C@H]1[C@@H]2C [Timosaponin AV]	4.66

Indicate the recorded pIC50 value for this compound: C[C@H]1CC[C@@]2(OC1)O[C@H]1C[C@H]3[C@@H]4CC[C@@H]5C[C@@H](O[C@@H]6O[C@H](CO)[C@H](O)[C@H](O)[C@H]6O)CC[C@]5(C)[C@H]4CC[C@]3(C)[C@H]1[C@@H]2C [Timosaponin AI]
4.92

* * *

What pIC50 was measured for each of the following?
- Tested on: HepG2, human hepatoma cells
- Protocol Summary: Growth of cancer cell lines: HepG2
- Type: cell-based
- Stated Conditions: mean ± S.D., n = 3; read-out: IC50 against growth of HepG2
Answers are plain numbers, as −log10 of the molar value.

Compound	pIC50
C[C@H]1CC[C@@]2(OC1)O[C@H]1C[C@H]3[C@@H]4CC[C@@H]5C[C@@H](O[C@@H]6O[C@H](CO)[C@H](O[C@@H]7O[C@H](CO)[C@@H](O)[C@H](O)[C@H]7O)[C@H](O)[C@H]6O[C@@H]6O[C@H](CO)[C@@H](O)[C@H](O)[C@H]6O)CC[C@]5(C)[C@H]4CC[C@]3(C)[C@H]1[C@@H]2C [Timosaponin AV]	4.76

Now, please, on to the next compound.
Report measured pIC50 on HepG2, human hepatoma cells; entry: C[C@H]1CC[C@@]2(OC1)O[C@H]1C[C@H]3[C@@H]4CC[C@@H]5C[C@@H](O[C@@H]6O[C@H](CO)[C@@H](O)[C@H](O)[C@H]6O)CC[C@]5(C)[C@H]4CC[C@]3(C)[C@H]1[C@@H]2C [Asparagoside A]
5.11

* * *

- Tested on: Aβ1-42 production in SweAPP N2A cells (N2A-APPswe)
- Protocol Summary: Aβ1-42 ELISA of conditioned medium of SweAPP N2A cells
- Format: cell-based
- Stated Conditions: N2a-APPswe, read-out: IC50 in lowering Aβ42 production
Readout Label: IC50

Known IC50 results, listed for orientation:
Smiles Str	IC50
C[C@H]1CC[C@@]2(OC1)O[C@H]1C[C@H]3[C@@H]4CC[C@@H]5C[C@@H](OCC(=O)O)CC[C@]5(C)[C@H]4CC[C@]3(C)[C@H]1[C@@H]2C	27 µM
C[C@@H]1CC[C@@]2(OC1)O[C@H]1C[C@H]3[C@@H]4CC[C@@H]5C[C@@H](O)CC[C@]5(C)[C@H]4CC[C@]3(C)[C@H]1[C@@H]2C	> 100 µM

Could you report IC50 for every entry in the following list?
1. C[C@H]1CC[C@@]2(OC1)O[C@H]1C[C@H]3[C@@H]4CC[C@H]5C[C@@H](O)CC[C@]5(C)[C@H]4CC[C@]3(C)[C@H]1[C@@H]2C
2. C[C@@H]1CC[C@@]2(OC1)O[C@H]1C[C@H]3[C@@H]4CC[C@H]5C[C@@H](O)CC[C@]5(C)[C@H]4CC[C@]3(C)[C@H]1[C@@H]2C

1: > 100 µM; 2: > 100 µM
